Source of measurements: ChEMBL document CHEMBL3044880

system: Aspergillus niger; assay: Antimicrobial activity against Aspergillus niger assessed as growth inhibition after 72-96 hr by two-fold serial dilution method; type: functional
Experimental endpoint: MIC (µg/mL)

1) CC1/C(=N/Nc2nc3ccccc3s2)CC(c2ccc(F)cc2)NC1c1ccc(F)cc1 (stereo not drawn)    100
2) CC1/C(=N/Nc2nc3ccccc3s2)CC(c2ccc(Br)cc2)NC1c1ccc(Br)cc1 (stereo not drawn)    200
3) c1ccc(C2CC(=NNc3nc4ccccc4s3)CC(c3ccccc3)N2)cc1 (stereo not drawn)    200

###

tested on: Aspergillus flavus; assay: Antimicrobial activity against Aspergillus flavus assessed as growth inhibition after 72-96 hr by two-fold serial dilution method; type: functional
Below: a set of entries, each annotated with reported MIC.
Experimental endpoint: MIC

1. CC1/C(=N/Nc2nc3ccccc3s2)CC(c2ccc(F)cc2)NC1c1ccc(F)cc1 (stereo not drawn)    100 µg/mL
2. CCC1/C(=N/Nc2nc3ccccc3s2)CC(c2ccccc2)NC1c1ccccc1 (stereo not drawn)    100 µg/mL
3. CC1/C(=N/Nc2nc3ccccc3s2)CC(c2ccccc2Cl)NC1c1ccccc1Cl (stereo not drawn)    200 µg/mL
4. COc1ccc(C2C/C(=N\Nc3nc4ccccc4s3)C(C)C(c3ccc(OC)cc3)N2)cc1 (stereo not drawn)    100 µg/mL
5. C[C@@H]1[C@H](O)[C@@H](C)/C=C/C=C/C=C/C=C/C=C/C=C/C=C/[C@H](O[C@@H]2O[C@H](C)[C@@H](O)[C@H](N)[C@@H]2O)C[C@@H]2O[C@](O)(C[C@@H](O)C[C@@H](O)[C@H](O)CC[C@@H](O)C[C@@H](O)CC(=O)O[C@H]1C)C[C@H](O)[C@H]2C(=O)O [AMPHOTERICIN B]    50 µg/mL
6. CC1/C(=N/Nc2nc3ccccc3s2)CC(c2ccc(Br)cc2)NC1c1ccc(Br)cc1 (stereo not drawn)    200 µg/mL
7. CC1/C(=N/Nc2nc3ccccc3s2)CC(c2ccc(Cl)cc2)NC1c1ccc(Cl)cc1 (stereo not drawn)    50 µg/mL
8. c1ccc(C2CC(=NNc3nc4ccccc4s3)CC(c3ccccc3)N2)cc1 (stereo not drawn)    200 µg/mL

###

Below: a set of entries, each annotated with reported MIC.
system: Pseudomonas aeruginosa; experiment: Antimicrobial activity against Pseudomonas aeruginosa MTCC 741 assessed as growth inhibition after 24 hr by two-fold serial dilution method; format: functional; settings: MTCC 741, 24 h
Experimental endpoint: MIC (µg/mL)

1. CC1/C(=N/Nc2nc3ccccc3s2)CC(c2ccccc2)NC1c1ccccc1 (stereo not drawn)    200
2. CC1/C(=N/Nc2nc3ccccc3s2)CC(c2ccccc2Cl)NC1c1ccccc1Cl (stereo not drawn)    100
3. c1ccc(C2CC(=NNc3nc4ccccc4s3)CC(c3ccccc3)N2)cc1 (stereo not drawn)    200
4. CN[C@@H]1[C@H](O[C@H]2[C@H](O[C@H]3[C@H](O)[C@@H](O)[C@H](N=C(N)N)[C@@H](O)[C@@H]3N=C(N)N)O[C@@H](C)[C@]2(O)C=O)O[C@@H](CO)[C@H](O)[C@H]1O [STREPTOMYCIN]    50
5. CC1/C(=N/Nc2nc3ccccc3s2)CC(c2ccc(Cl)cc2)NC1c1ccc(Cl)cc1 (stereo not drawn)    100
6. CCC1/C(=N/Nc2nc3ccccc3s2)CC(c2ccccc2)NC1c1ccccc1 (stereo not drawn)    100
7. CC1/C(=N/Nc2nc3ccccc3s2)CC(c2ccc(F)cc2)NC1c1ccc(F)cc1 (stereo not drawn)    200
8. CC1/C(=N/Nc2nc3ccccc3s2)CC(c2ccc(Br)cc2)NC1c1ccc(Br)cc1 (stereo not drawn)    200
